SYSTEM_TESTED: Cyclin-dependent kinase 2/cyclin E1 (Homo sapiens, UniProt P24941)
EXPERIMENTAL_DETAILS: biochemical
EXPERIMENTAL_ENDPOINT: IC50 (µM)
# unit: µM | format: bare number

Enquiry: Value wanted: IC50 (Cyclin-dependent kinase 2/cyclin E1 (Homo sapiens, UniProt P24941)) of entry CNC(=O)c1nn(C)c2c1C(C)(C)Cc1cnc(Nc3ccc(N4CCN(C)CC4)cc3)nc1-2 [MILCICLIB]
Return: 0.59

Enquiry: Missing value: IC50, Cyclin-dependent kinase 2/cyclin E1 (Homo sapiens, UniProt P24941), entry OCCCNc1cc(-c2ccnc(Nc3cccc(Cl)c3)n2)ccn1 . Fill in?
Return: 0.003

Enquiry: Form: Entry = CC(C)c1cnc(NC(=O)Cc2ccccc2)s1 | System = Cyclin-dependent kinase 2/cyclin E1 (Homo sapiens, UniProt P24941) | IC50 = ____
Return: 0.195

Enquiry: What reported IC50 corresponds to CCCOc1cnc(CN/C=C2\C(=O)NC(=O)c3ccc(I)cc32)cc1O on Cyclin-dependent kinase 2/cyclin E1 (Homo sapiens, UniProt P24941)?
Return: 0.501

Enquiry: Param readout= IC50; system= Cyclin-dependent kinase 2/cyclin E1 (Homo sapiens, UniProt P24941); entry= CCCCOc1c(C(=O)c2c(F)cc(C)cc2F)c[nH]c2nncc1-2 ; returns value.
Return: 0.006

###

EXPERIMENTAL_ENDPOINT: pIC50
Here pIC50 is given on a logarithmic scale as minus log10 of the concentration in mol/L.

Enquiry: What pIC50 appears in the records for this molecule with N-lysine methyltransferase KMT5A (Homo sapiens)? Cc1ccc(NC2=CC(=O)c3sc(C)nc3C2=O)cc1
Sequence (Q9NQR1 whole entry): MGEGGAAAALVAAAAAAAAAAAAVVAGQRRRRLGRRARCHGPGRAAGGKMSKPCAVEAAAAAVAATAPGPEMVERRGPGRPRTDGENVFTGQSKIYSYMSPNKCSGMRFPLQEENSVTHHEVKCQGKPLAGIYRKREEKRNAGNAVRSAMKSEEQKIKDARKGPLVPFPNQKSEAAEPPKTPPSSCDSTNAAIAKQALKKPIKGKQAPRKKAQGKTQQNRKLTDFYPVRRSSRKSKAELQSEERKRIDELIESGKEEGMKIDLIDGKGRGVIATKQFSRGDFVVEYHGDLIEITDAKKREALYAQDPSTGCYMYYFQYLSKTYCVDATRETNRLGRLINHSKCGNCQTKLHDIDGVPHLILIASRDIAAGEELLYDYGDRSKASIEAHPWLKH
Return: 6.30

###

Exercise: for every item that follows, state its recorded IC50.

Enquiry: Please state recorded IC50 (tested on CDK2/Cyclin A2 (Homo sapiens)) of CN1CCN(c2ccc(Nc3ncc4cc(C#N)c(=O)n(C5CCCC5)c4n3)cc2)CC1
Return: 0.055 µM

Enquiry: Fill in the recorded IC50 for this compound, with CDK2/Cyclin A2 (Homo sapiens) as test system: CC(=O)c1cnc2oc3ccc(O)cc3c2c1-c1ccccc1
Return: > 20 µM

Enquiry: API: value(readout=IC50, system=CDK2/Cyclin A2 (Homo sapiens)) for record CC[C@H](CO)Nc1nc(Nc2cccc(-c3ccccn3)c2)c2ncn(C(C)C)c2n1
Return: 0.29 µM

Enquiry: Look up IC50 with CDK2/Cyclin A2 (Homo sapiens) for this compound: CCCCOc1c(C(=O)c2c(F)cc(C)cc2F)c[nH]c2nncc1-2
Return: 0.071 µM

Enquiry: Notebook: pull reported IC50 for CDK2/Cyclin A2 (Homo sapiens), entry CCOC(=O)c1cnc2oc3ccc(O)cc3c2c1-c1ccccc1
Return: 7.1 µM

Enquiry: Lab request: please report IC50 under test system CDK2/Cyclin A2 (Homo sapiens) for Nc1cc(Nc2ccc(S(N)(=O)=O)cc2)ncn1
Return: 0.946 µM

###

Exercise: state measured pIC50 for each of the compounds provided.
SYSTEM_TESTED: CDK7/Cyclin H/MNAT1 (Homo sapiens, UniProt P50613)
Sequence (P51946 whole entry): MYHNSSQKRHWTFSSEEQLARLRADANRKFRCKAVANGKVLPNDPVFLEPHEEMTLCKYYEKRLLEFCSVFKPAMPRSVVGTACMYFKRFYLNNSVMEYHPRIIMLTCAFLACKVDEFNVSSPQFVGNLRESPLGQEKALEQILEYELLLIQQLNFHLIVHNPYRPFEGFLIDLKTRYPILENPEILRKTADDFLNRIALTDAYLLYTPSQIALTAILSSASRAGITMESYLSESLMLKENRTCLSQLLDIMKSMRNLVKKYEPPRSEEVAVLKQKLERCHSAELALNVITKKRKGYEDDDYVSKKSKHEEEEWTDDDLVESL
Sequence (P50613 whole entry): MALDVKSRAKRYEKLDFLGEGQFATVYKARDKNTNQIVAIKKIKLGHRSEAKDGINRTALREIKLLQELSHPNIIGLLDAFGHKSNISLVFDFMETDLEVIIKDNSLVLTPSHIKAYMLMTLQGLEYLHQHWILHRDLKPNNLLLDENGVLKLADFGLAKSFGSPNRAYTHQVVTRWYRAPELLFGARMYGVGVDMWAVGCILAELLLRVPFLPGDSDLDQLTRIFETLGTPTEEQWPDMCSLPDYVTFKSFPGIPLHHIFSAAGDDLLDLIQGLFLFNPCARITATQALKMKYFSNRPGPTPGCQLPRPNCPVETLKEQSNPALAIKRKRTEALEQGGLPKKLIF
Sequence (P51948 whole entry, further chain): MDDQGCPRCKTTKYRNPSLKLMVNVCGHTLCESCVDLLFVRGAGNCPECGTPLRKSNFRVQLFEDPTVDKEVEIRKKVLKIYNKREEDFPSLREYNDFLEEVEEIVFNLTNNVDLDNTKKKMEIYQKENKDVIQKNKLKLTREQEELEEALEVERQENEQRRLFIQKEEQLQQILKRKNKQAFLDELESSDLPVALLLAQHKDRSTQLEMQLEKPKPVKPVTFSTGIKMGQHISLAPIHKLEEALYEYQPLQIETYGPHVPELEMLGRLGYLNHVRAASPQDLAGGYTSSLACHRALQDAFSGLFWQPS
EXPERIMENTAL_DETAILS: biochemical
pIC50: −log10 of the molar value.

Enquiry: Notebook entry, CDK7/Cyclin H/MNAT1 (Homo sapiens, UniProt P50613) assay: pIC50 of CCNc1cc(N[C@H]2CC[C@H](O)CC2)nc(Nc2ccc3c(ccn3Cc3ccccc3)c2)n1 = ?
Return: < 5.00

Enquiry: Notebook: pull reported pIC50 for CDK7/Cyclin H/MNAT1 (Homo sapiens, UniProt P50613), entry Nc1nc(Nc2ccc(S(N)(=O)=O)cc2)nn1C(=S)Nc1c(F)cccc1F
Return: 7.18

Enquiry: Provide the documented pIC50 with CDK7/Cyclin H/MNAT1 (Homo sapiens, UniProt P50613) as the system for Cc1ccc(NC2=CC(=O)c3sc(C)nc3C2=O)cc1
Return: < 4.70

Enquiry: pIC50 of COc1ccc(CNc2nc(N(CCO)CCO)nc3c2ncn3C(C)C)cc1 on CDK7/Cyclin H/MNAT1 (Homo sapiens, UniProt P50613)?
Return: 5.04

Enquiry: Provide value of pIC50 for this record tested with CDK7/Cyclin H/MNAT1 (Homo sapiens, UniProt P50613): CC[C@H](CO)Nc1nc(Nc2cccc(-c3ccccn3)c2)c2ncn(C(C)C)c2n1
Return: 6.09

Enquiry: Identify the measured pIC50 of Nc1n[nH]c2nc3ccccc3nc12 for CDK7/Cyclin H/MNAT1 (Homo sapiens, UniProt P50613).
Return: < 4.70

Enquiry: // fetch CDK7/Cyclin H/MNAT1 (Homo sapiens, UniProt P50613) pIC50 for O=C1Nc2cc(Br)ccc2/C1=C1/Nc2ccccc2/C1=N\O
Return: 5.46

Enquiry: Fill in the recorded pIC50 for this compound, with CDK7/Cyclin H/MNAT1 (Homo sapiens, UniProt P50613) as test system: CN(C)C(=O)c1cc2cnc(Nc3ccc(N4CCNCC4)cn3)nc2n1C1CCCC1
Return: < 4.70

Enquiry: Quick check: pIC50 on CDK7/Cyclin H/MNAT1 (Homo sapiens, UniProt P50613), item O=C1NC(=O)c2c1c1c3ccccc3[nH]c1c1[nH]c3cc(Br)ccc3c21 ?
Return: < 4.70

Enquiry: Which pIC50 is reported with CDK7/Cyclin H/MNAT1 (Homo sapiens, UniProt P50613) for this entry: O=C1NC(=O)c2c1c1c3ccccc3[nH]c1c1[nH]c3ccccc3c21 ?
Return: < 4.70

Enquiry: # value lookup — system CDK7/Cyclin H/MNAT1 (Homo sapiens, UniProt P50613), readout pIC50, item CCCOc1cnc(CN/C=C2\C(=O)NC(=O)c3ccc(I)cc32)cc1O
Return: < 4.70

Enquiry: Recorded pIC50 for Nc1cc(Nc2ccc(S(N)(=O)=O)cc2)ncn1 with CDK7/Cyclin H/MNAT1 (Homo sapiens, UniProt P50613), please?
Return: < 4.70
